From: ChEMBL document CHEMBL1961873

- tested_on: Serine/threonine-protein kinase Chk2 (Homo sapiens) (UniProt O96017)
- Sequence (O96017 whole entry): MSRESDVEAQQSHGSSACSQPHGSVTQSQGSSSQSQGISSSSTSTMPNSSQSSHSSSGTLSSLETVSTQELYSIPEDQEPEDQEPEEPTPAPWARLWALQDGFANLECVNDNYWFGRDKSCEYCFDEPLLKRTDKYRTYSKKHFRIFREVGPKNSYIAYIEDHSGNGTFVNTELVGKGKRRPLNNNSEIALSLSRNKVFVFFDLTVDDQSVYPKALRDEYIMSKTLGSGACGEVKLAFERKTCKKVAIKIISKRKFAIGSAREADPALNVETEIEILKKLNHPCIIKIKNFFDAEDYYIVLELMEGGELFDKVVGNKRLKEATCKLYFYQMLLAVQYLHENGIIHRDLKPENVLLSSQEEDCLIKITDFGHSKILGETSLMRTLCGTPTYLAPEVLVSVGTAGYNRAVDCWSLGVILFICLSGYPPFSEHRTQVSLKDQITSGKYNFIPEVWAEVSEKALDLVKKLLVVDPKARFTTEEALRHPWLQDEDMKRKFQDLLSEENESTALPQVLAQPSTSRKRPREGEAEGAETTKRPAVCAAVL
- measurement_context: at 0.1 µM
- Description: GSK_PKIS: CHEK2 mean inhibition at 0.1 uM [Nanosyn]
readout: inhibition (%)

CC(=O)Nc1cccc(C#Cc2cncnc2Nc2ccc(OCc3cccc(F)c3)c(Cl)c2)n1 | 3.3
NS(=O)(=O)c1cccc(-c2ccc3c(NC(=O)C4CC4)n[nH]c3c2)c1 | -2.9
CN1CCC(C(=O)Nc2n[nH]c3nnc(-c4ccccc4)cc23)CC1 | -1.11
CCn1c(-c2nonc2N)nc2c(C#CC(C)(C)O)nc(CN3CCCC3)cc21 | -1.49
CCc1cccc(NC(=O)Nc2ccc(Oc3ccc4nc(NC(=O)OC)[nH]c4c3)cc2)c1 | -4.84
CC1=C(C(=O)Nc2ccc3[nH]ncc3c2)C(c2ccc(Cl)c(Cl)c2)CC(=O)N1 (configuration not stated) | 1.4
Cn1cc(C=C2C(=O)Nc3cccnc32)c2ccccc21 | 2.65

* * *

- tested_on: Serine/threonine-protein kinase Sgk2 (Homo sapiens)
- measurement_context: at 0.1 µM
readout: inhibition (%)

[O-][S+]1CCN(Cc2ccc(-c3ccc4ncnc(Nc5ccc(OCc6ccccc6)c(F)c5)c4c3)o2)CC1 | 1.18
Cc1cccc(-c2n[nH]cc2-c2ccc3ncccc3n2)n1 | 0.23
CN1CCC(C(=O)Nc2n[nH]c3nnc(-c4ccccc4)cc23)CC1 | 4.36
COc1ccc(COc2ccc(Cc3cnc(N)nc3N)cc2OC)cc1 | 4.24
CCn1c(-c2nonc2N)nc2ccncc21 | 2.07
COc1ccc(-c2nn3ncccc3c2-c2ccnc(Nc3ccc(Cl)c(C(F)(F)F)c3)n2)cc1 | -2.66
O=C1NC(=O)C(c2ccccc2Cl)=C1Nc1cccc(O)c1 | 0.71
CC(C)=Cc1cccc2c1/C(=N/Nc1ccc(S(N)(=O)=O)cc1)C(=O)N2 | -2.99
CCn1c(-c2nonc2N)nc2c(N3CCCC3)nccc21 | -2.98
COc1cc(C=NNc2ncnc3c2cnn3-c2ccccc2)ccc1O | 1.73
Cn1cc(C=C2C(=O)Nc3cccnc32)c2ccccc21 | -2.41

* * *

- tested_on: Proto-oncogene tyrosine-protein kinase Src (Homo sapiens) (UniProt P12931)
- Sequence (P12931 2-536 limits assumed): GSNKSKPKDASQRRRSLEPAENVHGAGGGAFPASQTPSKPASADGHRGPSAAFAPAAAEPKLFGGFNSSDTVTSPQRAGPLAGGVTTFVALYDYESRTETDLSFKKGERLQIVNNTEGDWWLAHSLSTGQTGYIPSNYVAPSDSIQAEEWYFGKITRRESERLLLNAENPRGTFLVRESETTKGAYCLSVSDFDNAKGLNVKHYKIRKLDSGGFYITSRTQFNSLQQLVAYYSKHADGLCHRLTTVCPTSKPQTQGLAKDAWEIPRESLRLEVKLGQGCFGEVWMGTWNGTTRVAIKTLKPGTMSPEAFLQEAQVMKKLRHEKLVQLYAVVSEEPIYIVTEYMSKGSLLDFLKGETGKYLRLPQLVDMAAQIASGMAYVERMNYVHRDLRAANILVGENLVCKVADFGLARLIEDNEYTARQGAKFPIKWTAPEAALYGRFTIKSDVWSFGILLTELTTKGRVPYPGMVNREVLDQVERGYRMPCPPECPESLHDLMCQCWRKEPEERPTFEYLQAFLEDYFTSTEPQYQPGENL
- measurement_context: at 1 µM
Short version: inhibition at least 10% is y, less is n.

CCn1c(-c2nonc2N)nc2c(C#CC(C)(C)O)nc(OC[C@@H](N)c3ccccc3)cc21 | n
CCn1c(-c2nonc2N)nc2cnc(Oc3cccc(NC(=O)c4ccc(OCCN5CCOCC5)cc4)c3)cc21 | n
CCn1c(-c2nonc2N)nc2c(C#CC(C)(C)O)nc(CN3CCCC3)cc21 | n
CCN1CCC(CC(=O)Nc2n[nH]c3nc(-c4cccs4)c(Br)cc23)CC1 | n
CCn1c(-c2nonc2N)nc2ccncc21 | n
COc1cc(C)c(NC(=O)CN(C)C)cc1Nc1nc(Nc2cccc(F)c2C(N)=O)c2cc[nH]c2n1 | n
Fc1cccc(COc2ccc(Nc3ncnc4cc(-c5ccc[nH]5)sc34)cc2Cl)c1 | n
O=C1NC(=O)C(c2ccccc2Cl)=C1Nc1cccc(O)c1 | n
NS(=O)(=O)c1ccc(N/N=C2\C(=O)Nc3ccc(C(=O)NCCc4c[nH]cn4)cc32)cc1 | y
CCCN1CCC=C(c2ccc(Nc3nc(Nc4ccccc4C(N)=O)c4cc[nH]c4n3)c(C)c2)C1 | y
CS(=O)(=O)CCNCc1nc(-c2ccc3ncnc(Nc4ccc(F)c(Cl)c4)c3c2)cs1 | n
COc1cc2ncn(-c3cc(O[C@@H](C)c4ccccc4Cl)c(C(N)=O)s3)c2cc1OC | y
COc1ccc(-c2nn3ncccc3c2-c2ccnc(Nc3ccc(Cl)c(C(F)(F)F)c3)n2)cc1 | n
COc1ccccc1Nc1ncc(-c2ccccc2)o1 | y
CS(=O)(=O)Nc1ccc(N/C=C2\C(=O)Nc3ccccc32)cc1 | n
NC(=O)c1cccc(Nc2nccc(Nc3cccc4[nH]ncc34)n2)c1 | y
CC1=C(C(=O)Nc2ccc3[nH]ncc3c2)C(c2ccc(Cl)c(Cl)c2)CC(=O)N1 (stereo not drawn) | y
CCc1cccc(NC(=O)Nc2ccc(Oc3ccc4nc(NC(=O)OC)[nH]c4c3)cc2)c1 | n
COc1ccc(-c2ccncc2)cc1C(N)=O | y
CS(=O)(=O)CCN(CC#N)Cc1ccc(-c2ccc3ncnc(Nc4ccc(OCc5cccc(F)c5)c(Cl)c4)c3c2)o1 | n
CC(=O)Nc1cccc(C#Cc2cncnc2Nc2ccc(OCc3cccc(F)c3)c(Cl)c2)n1 | n
Nc1nc(-c2ccccn2)c(-c2ccc3ncccc3n2)s1 | n
CS(=O)(=O)CCNCc1ccc(-c2ccc3ncnc(Nc4ccc(OCc5ccccc5)c(Cl)c4)c3c2)o1 | n

* * *

Recorded measurements of inhibition, one per entry
- tested_on: Dual specificity tyrosine-phosphorylation-regulated kinase 1A (Homo sapiens)
- measurement_context: at 0.1 µM
- Description: GSK_PKIS: DYRK1A mean inhibition at 0.1 uM [Nanosyn]
readout: inhibition (%)

COc1ccc2cc(-c3c(-c4ccncc4)nc(-c4ccc([S+](C)[O-])cc4)n3C)ccc2c1 (stereo not drawn) | 0.49
CC(C)=Cc1cccc2c1/C(=N/Nc1ccc(S(N)(=O)=O)cc1)C(=O)N2 | -1.42
Cc1cc(O)cc(C)c1/C=C/c1cncc(-c2nn[nH]n2)c1 | 1.17
Nc1ncnc2occ(-c3ccc(NC(=O)Nc4cc(C(F)(F)F)cc(C(F)(F)F)c4)cc3)c12 | 0.09
COc1cc(C=NNc2ncnc3c2cnn3-c2ccccc2)ccc1O | 4.3
CC1=C(C(=O)Nc2ccc3[nH]ncc3c2)C(c2ccc3ccccc3c2)CC(=O)N1 (stereo not drawn) | 3.4
CCn1c(-c2nonc2N)nc2ccncc21 | 0.1
COc1ccc(COc2ccc(Cc3cnc(N)nc3N)cc2OC)cc1 | 1.44
NC(=O)c1cccc(Nc2nccc(Nc3cccc4[nH]ncc34)n2)c1 | 3.35
O=C1NC(=O)C(N2CCc3ccccc32)=C1c1ccc(Cl)cc1 | 3.12
NCc1ccc(-c2nc(-c3ccc(Cl)c(O)c3)c(-c3ccncc3)[nH]2)cc1 | 3.51
CCn1c(-c2nonc2N)nc2cncc(C(=O)N3CC[C@H](N)C3)c21 | 12.7
CC(=O)Nc1cccc(C#Cc2cncnc2Nc2ccc(OCc3cccc(F)c3)c(Cl)c2)n1 | -0.63

* * *

- tested_on: Rho-associated protein kinase 1 (Homo sapiens)
- measurement_context: at 1 µM
Recorded measurements of inhibition, one per entry
readout: inhibition (%)

COC(=O)Nc1nc2cc(Oc3ccc(NC(=O)Nc4cccc(C(=O)O)c4)cc3)ccc2[nH]1 | 1.55
Nc1nc(-c2ccccn2)c(-c2ccc3ncccc3n2)s1 | 2.15
COc1cc2ncn(-c3cc(OCc4ccccc4C(F)(F)F)c(C(N)=O)s3)c2cc1OC | 4.31
Nc1nc(-c2ccc3c(c2)C(=Cc2cc(Br)c(O)c(Br)c2)C(=O)N3)cs1 | -0.02
COC(=O)Nc1nc2cc(Oc3cccc(NC(=O)Nc4cc(C(F)(F)F)ccc4F)c3)ccc2[nH]1 | 0.94
COc1cc(C)c(NC(=O)CN(C)C)cc1Nc1nc(Nc2cccc(F)c2C(N)=O)c2cc[nH]c2n1 | 11.4
CCc1cccc(NC(=O)Nc2ccc(Oc3ccc4nc(NC(=O)OC)[nH]c4c3)cc2)c1 | 18.3
Cc1cccc(-c2n[nH]cc2-c2ccc3ncccc3n2)n1 | -0.22
NC(=O)c1cccc(Nc2nccc(Nc3cccc4[nH]ncc34)n2)c1 | 7.57
CCCN1CCC(Oc2cc(Nc3nc(Nc4cccc(F)c4C(N)=O)c4cc[nH]c4n3)c(OC)cc2Cl)CC1 | 8.85
[O-][S+]1CCN(Cc2ccc(-c3ccc4ncnc(Nc5ccc(OCc6ccccc6)c(F)c5)c4c3)o2)CC1 | 1.51
N#Cc1c(NC(=O)c2cccc3ccccc23)sc2c1CCCC2 | 2.34
Fc1cccc(COc2ccc(Nc3ncnc4cc(-c5ccc[nH]5)sc34)cc2Cl)c1 | 1.71
CS(=O)(=O)CCN(CC#N)Cc1ccc(-c2ccc3ncnc(Nc4ccc(OCc5cccc(F)c5)c(Cl)c4)c3c2)o1 | 1.43

* * *

- tested_on: Serine/threonine-protein kinase Nek6 (Homo sapiens) (UniProt Q9HC98)
- Sequence (Q9HC98 whole entry): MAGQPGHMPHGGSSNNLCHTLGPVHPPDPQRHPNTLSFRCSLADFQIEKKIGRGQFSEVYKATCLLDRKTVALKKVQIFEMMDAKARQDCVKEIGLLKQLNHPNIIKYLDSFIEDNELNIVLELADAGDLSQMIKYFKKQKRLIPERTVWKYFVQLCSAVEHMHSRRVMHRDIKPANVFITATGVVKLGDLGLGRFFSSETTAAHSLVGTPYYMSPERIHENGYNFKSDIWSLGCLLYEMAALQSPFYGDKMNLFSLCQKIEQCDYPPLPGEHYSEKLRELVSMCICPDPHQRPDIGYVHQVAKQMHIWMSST
- measurement_context: at 0.1 µM
Recorded measurements of inhibition, one per entry
readout: inhibition (%)

COc1ccc(-c2ccncc2)cc1C(N)=O | -0.26
NC(=O)c1ccc(-c2nc(-c3ccccn3)c(-c3ccc4c(c3)OCO4)[nH]2)cc1 | 2.04
O=C1NC(=O)C(c2cccc(Cl)c2)=C1Nc1ccc(O)c(Cl)c1 | -0.33
COc1cc2ncn(-c3cc(O[C@H](C)c4ccccc4Cl)c(C(N)=O)s3)c2cc1OC | 2.67
NS(=O)(=O)c1ccc(N/N=C2\C(=O)Nc3ccc(C(=O)NCCc4c[nH]cn4)cc32)cc1 | 3.45
CNC(=O)c1cncc(/C=C/c2c(Cl)cccc2Cl)c1 | 1.11
CCn1c(-c2nonc2N)nc2cnc(Oc3cccc(NC(=O)c4ccc(OCCN5CCOCC5)cc4)c3)cc21 | 2.55
CN1CCC(C(=O)Nc2n[nH]c3nnc(-c4ccccc4)cc23)CC1 | 2.59
CC1=C(C(=O)Nc2ccc3[nH]ncc3c2)C(c2ccc3ccccc3c2)CC(=O)N1 (centres undefined) | -0.05
